# assay_name: Comparison of half-life in plasma of native CNP-22, native CNP-53 and chimeric CNP (Example 12)
# condition: male, SD, rat, in vivo, iv, 20 nmol/kg, T½ Mean Value, Joint Use with NEP Inhibitor: no; intravenous, male rats, N = 3
observable: half-life (min)
Entry rule: numbers only, all in min.

Incoming: Data request, read-out half-life, for CC[C@H](C)[C@@H]1NC(=O)[C@H](CCCNC(=N)N)NC(=O)[C@H](CC(=O)O)NC(=O)[C@H](CC(C)C)NC(=O)[C@H](CCCCN)NC(=O)[C@H](CC(C)C)NC(=O)CNC(=O)[C@H](Cc2ccccc2)NC(=O)[C@@H](NC(=O)CNC(=O)[C@H](CCCCN)NC(=O)[C@H](CO)NC(=O)[C@H](CC(C)C)NC(=O)CN)CSSC[C@@H](C(=O)O)NC(=O)CNC(=O)[C@H](CC(C)C)NC(=O)CNC(=O)[C@H](CO)NC(=O)[C@H](CCSC)NC(=O)[C@H](CO)NC(=O)CNC1=O [Native CNP-22]
Outgoing: 1.11
